Where these numbers come from: patent US20080261994A1

Entries and their IC50
target: MMP-1 (Homo sapiens, UniProt P03956); assay: MMP-1 inhibitory action (Type I collagen Activity Measurement kit, FITC-labeled collagen type I); type: biochemical; details: Experimental Example 2; read-out: IC50 MMP1
Sequence (P03956 100-469, species assumed): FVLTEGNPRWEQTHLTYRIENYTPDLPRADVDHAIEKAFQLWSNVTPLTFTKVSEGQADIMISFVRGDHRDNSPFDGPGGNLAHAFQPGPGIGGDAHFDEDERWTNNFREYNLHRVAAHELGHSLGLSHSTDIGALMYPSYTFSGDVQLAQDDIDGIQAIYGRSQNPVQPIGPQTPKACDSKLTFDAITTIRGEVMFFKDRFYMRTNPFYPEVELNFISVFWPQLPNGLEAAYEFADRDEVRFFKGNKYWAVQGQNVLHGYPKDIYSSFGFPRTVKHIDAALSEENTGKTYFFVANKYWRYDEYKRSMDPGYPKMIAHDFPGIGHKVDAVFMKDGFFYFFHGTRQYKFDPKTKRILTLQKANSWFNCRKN

# molecule, IC50
measured = [
    ("Cn1cc(-c2ccc(S(=O)(=O)N[C@@]3(C(=O)O)C[C@@H]3c3ccccc3)s2)cn1 [Example 2-387]", "≥ 10000 nM"),
    ("CC1[C@H](c2ccccc2)[C@]1(NS(=O)(=O)N1CCN(c2ccc(Cl)c(F)c2)CC1)C(=O)O (stereo partly shown) [Example 2-459]", "≥ 1000 nM"),
    ("O=C(NCC1(c2ccccc2)CC1(NS(=O)(=O)c1ccc(-c2ccc(Cl)cc2)s1)C(=O)O)c1ccccn1 (stereo not shown) [Example 2-368]", "≥ 1000 nM"),
    ("NC(=O)Cc1ccc([C@@H]2C[C@]2(NS(=O)(=O)c2ccc(-c3cc(C(F)(F)F)on3)s2)C(=O)O)cc1 [Example 2-292]", "< 1000 nM"),
]
